src = patent US8937183B2

Listing: average relative light units (bioluminescence) of selected compounds
ASSAY PROCEDURE: Generation of bioluminescence from luciferin borates upon treatment with hydrogen peroxide (luciferase light reaction)
Format: biochemical
CONDITION CONTEXT: H2O2 15 μM, phosphate buffer pH 6.87, 70 minutes

* O=C(O)C1CSC(c2nc3ccc(OCc4c(B(O)O)ccc5ccccc45)cc3s2)=N1 (stereo not shown) | 20,263 RLU
* CC(Oc1ccc2nc(C3=NC(C(=O)O)CS3)sc2c1)c1ccc(B(O)O)cc1 (stereo not shown) | 14,105 RLU
* O=C(O)C1CSC(c2nc3ccc(OCc4ccc(B(O)O)cc4)cc3s2)=N1 (stereo not shown) | 833,785 RLU

Attention now shifts to the item below.
Quick one: give measured average relative light units (bioluminescence) for O=C(O)C1CSC(c2nc3ccc(OCc4ccc(B(O)O)c5ccccc45)cc3s2)=N1 (stereo not shown)
793,789 RLU
